Target: μ opioid receptor (MOR) (Homo sapiens)
Construct: expressed in transfected cells
Sequence (P35372 whole entry): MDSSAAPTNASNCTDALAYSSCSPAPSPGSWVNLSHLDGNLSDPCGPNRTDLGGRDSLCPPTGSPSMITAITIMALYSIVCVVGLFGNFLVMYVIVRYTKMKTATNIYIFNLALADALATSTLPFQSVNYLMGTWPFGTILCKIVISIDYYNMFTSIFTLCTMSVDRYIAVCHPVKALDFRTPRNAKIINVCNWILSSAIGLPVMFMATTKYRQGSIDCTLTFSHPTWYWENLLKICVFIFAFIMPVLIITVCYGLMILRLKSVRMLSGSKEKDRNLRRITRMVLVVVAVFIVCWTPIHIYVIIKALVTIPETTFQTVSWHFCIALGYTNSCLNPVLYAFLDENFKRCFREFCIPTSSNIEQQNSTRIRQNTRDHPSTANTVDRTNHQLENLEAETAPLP
Assay: cell-based
Assay type: cell-based
Settings: EC50
pEC50: −log10 of the molar value.
metric: pEC50

>>> df
                                   compound  metric  value_relation_sign  test_value
0  COC(=O)[C@@H]1C=C(OC(=O)c2cnco2)C(=O)[C@H]2[C@@]1(C)CC[C@H]1C(=O)O[C@H](c3ccoc3)C[C@]21C [Table 3 Entry 10]   pEC50                    <        5.00
1  COC(=O)[C@@H]1C=C(OC(=O)CCc2ccccc2)C(=O)[C@H]2[C@@]1(C)CC[C@H]1C(=O)O[C@H](c3ccoc3)C[C@]21C [Table 3 Entry 5]   pEC50                    =        6.30
2  COC(=O)[C@@H]1C=C(OC(=O)Cc2ccccc2)C(=O)[C@H]2[C@@]1(C)CC[C@H]1C(=O)O[C@H](c3ccoc3)C[C@]21C [Table 3 Entry 4]   pEC50                    =        6.89
3  COC(=O)[C@@H]1C=C(OC(=O)c2cncs2)C(=O)[C@H]2[C@@]1(C)CC[C@H]1C(=O)O[C@H](c3ccoc3)C[C@]21C [Table 3 Entry 8]   pEC50                    <        5.00
4  COC(=O)[C@@H]1C=C(OC(=O)c2cocn2)C(=O)[C@H]2[C@@]1(C)CC[C@H]1C(=O)O[C@H](c3ccoc3)C[C@]21C [Table 3 Entry 9]   pEC50                    =        7.52
5  COC(=O)[C@@H]1C=C(OC(=O)c2cc3ccccc3s2)C(=O)[C@H]2[C@@]1(C)CC[C@H]1C(=O)O[C@H](c3ccoc3)C[C@]21C [Table 3 Entry 13]   pEC50                    =        8.22

Every entry's value here was drawn from patent US10125129B2.
